target.of.assay: human recombinant HDAC6 (Homo sapiens, UniProt Q9UBN7)
Construct: purchased Calbiochem 382180
Sequence (Q9UBN7 whole entry): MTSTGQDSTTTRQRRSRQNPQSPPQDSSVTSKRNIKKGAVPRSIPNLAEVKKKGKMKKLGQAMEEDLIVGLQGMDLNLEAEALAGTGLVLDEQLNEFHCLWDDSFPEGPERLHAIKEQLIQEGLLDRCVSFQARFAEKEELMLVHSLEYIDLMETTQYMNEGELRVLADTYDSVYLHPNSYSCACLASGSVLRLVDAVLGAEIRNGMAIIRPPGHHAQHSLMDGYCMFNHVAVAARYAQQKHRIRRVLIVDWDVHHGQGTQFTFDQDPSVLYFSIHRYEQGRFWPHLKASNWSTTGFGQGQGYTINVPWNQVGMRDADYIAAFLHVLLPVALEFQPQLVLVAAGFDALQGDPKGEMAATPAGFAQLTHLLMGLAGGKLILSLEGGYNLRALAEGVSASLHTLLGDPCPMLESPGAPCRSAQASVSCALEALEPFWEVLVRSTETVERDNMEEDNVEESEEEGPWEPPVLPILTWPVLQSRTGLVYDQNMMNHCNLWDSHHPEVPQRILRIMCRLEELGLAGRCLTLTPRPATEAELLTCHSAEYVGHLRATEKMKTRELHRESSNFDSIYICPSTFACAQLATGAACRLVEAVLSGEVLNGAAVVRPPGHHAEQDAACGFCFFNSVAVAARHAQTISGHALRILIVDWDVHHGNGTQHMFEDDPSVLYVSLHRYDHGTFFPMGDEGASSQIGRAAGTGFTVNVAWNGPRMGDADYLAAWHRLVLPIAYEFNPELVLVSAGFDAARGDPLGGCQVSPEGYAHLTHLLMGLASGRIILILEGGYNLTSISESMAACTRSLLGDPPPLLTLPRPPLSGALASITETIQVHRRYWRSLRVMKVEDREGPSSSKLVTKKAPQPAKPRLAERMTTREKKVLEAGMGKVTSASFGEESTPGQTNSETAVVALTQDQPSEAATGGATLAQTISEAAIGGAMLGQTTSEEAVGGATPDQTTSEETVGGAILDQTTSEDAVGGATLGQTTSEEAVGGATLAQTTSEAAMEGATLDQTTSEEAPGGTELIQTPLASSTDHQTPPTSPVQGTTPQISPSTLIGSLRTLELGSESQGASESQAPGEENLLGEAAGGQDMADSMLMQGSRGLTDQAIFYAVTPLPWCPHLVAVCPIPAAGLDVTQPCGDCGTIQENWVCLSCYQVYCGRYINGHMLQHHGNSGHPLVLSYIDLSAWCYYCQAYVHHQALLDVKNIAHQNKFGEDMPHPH
experiment.description: HDAC enzyme activity inhibition assay (HDAC6, fluorimetric kit)
Assay type: biochemical
conditions: HDAC6 versus HDAC1
HDAC6 selectivity (fold) reference
measured.parameter: HDAC6 selectivity (fold)

[[record]]
entry_smiles = "CCN1CCC(C(=O)N(Cc2ccc(-c3nnc(C(F)F)o3)cn2)c2cccc(F)c2)CC1"
measured_parameter = "HDAC6 selectivity (fold)"
reported = 3333

[[record]]
entry_smiles = "O=C(c1ccncc1)N(Cc1ccc(-c2nnc(C(F)(F)F)o2)cc1F)c1ccccc1"
measured_parameter = "HDAC6 selectivity (fold)"
reported = 1818

[[record]]
entry_smiles = "CS(=O)(=O)N1CC(C(=O)N(Cc2ccc(-c3nnc(C(F)(F)F)o3)cc2)c2ccccc2)C1"
measured_parameter = "HDAC6 selectivity (fold)"
reported = 606

[[record]]
entry_smiles = "CC(=O)N1CCC(C(=O)N(Cc2ccc(-c3nnc(C(F)F)o3)cc2F)c2ccccc2)CC1"
measured_parameter = "HDAC6 selectivity (fold)"
reported = 1351

[[record]]
entry_smiles = "CC(C)C(=O)N1CCC(C(=O)N(Cc2ccc(-c3nnc(C(F)(F)F)o3)cc2F)c2ccccc2)CC1"
measured_parameter = "HDAC6 selectivity (fold)"
reported = 332

[[record]]
entry_smiles = "O=C(C1CCN(Cc2ccccc2)CC1)N(Cc1ccc(-c2nnc(C(F)(F)F)o2)cc1)c1ccccc1"
measured_parameter = "HDAC6 selectivity (fold)"
reported = 194

[[record]]
entry_smiles = "O=C(c1ccncc1)N(Cc1ccc(-c2nnc(C(F)F)o2)cc1F)c1ccccc1"
measured_parameter = "HDAC6 selectivity (fold)"
reported = 2000

